experimental-protocol: viability loss in pontine glioma line – cell-based, SU-DIPG-XIII, MIPE5.0, CellTiter-Glo, qHTS, dose response (AID 1347064);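 for AC50: cells exposed to compound for 48 hours before the viability read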
condition-label: CellTiter-Glo ATP luminescence
Results filed as inconclusive are left out. Activity calls are given as the source filed them. No cut-off is given here; in the data, nearly all actives have AC50 up to about 23 µM.
Outcomes: 1 for active, 0 for inactive

compound	label-class
C=CC(=O)Nc1cccc(Oc2nc(Nc3ccc(N4CCN(C)CC4)cc3OC)ncc2Cl)c1	1
Cc1cc(-c2ccc(CC(=O)Nc3ccc(-c4cccnc4)cc3)cc2)ccn1	0
c1ccc(Cn2c(-c3ccc(OCC(C4CCNCC4)n4c(-c5ccccc5)nc5ccccc54)cc3)nc3ccccc32)cc1 (stereo not drawn)	1
NC(=O)c1cnc(-c2ccc(C3(N)CCC3)cc2)c(-c2ccccc2)c1	0
CCc1ccc(N(CC(C)C)S(=O)(=O)c2ccc(OCC3CCOCC3)c(CO)c2)cc1	0
COC(=O)N1CC2(CC2)C[C@H](C(=O)NO)[C@H]1C(=O)N1CCN(c2ccccc2)CC1	0
C[C@@H](Oc1ccc2[nH]nc(/C=C/c3cnn(CCO)c3)c2c1)c1c(Cl)cncc1Cl	1
CC(C)NC[C@@H](C(=O)N1CCN(c2ncnc3c2[C@H](C)C[C@H]3O)CC1)c1ccc(Cl)cc1	1
C=C1C[C@H]2C=Nc3cc(OCCCOc4cc5c(cc4OC)C(=O)N4CC(=C)C[C@H]4C=N5)c(OC)cc3C(=O)N2C1	1
NC(CO)(CO)CCc1ccc(Sc2cccc(OCc3ccccc3)c2)cc1Cl	1
COc1ccc(N2C(=O)N(c3c(C)cccc3Cl)Cc3cnc(Nc4ccc(C5CCN(C)CC5)cc4OC)nc32)nc1	1
COc1ccc(-c2ccc3c(N4CCOC[C@@H]4C)nc(N4CCOC[C@@H]4C)nc3n2)cc1CO	1
CC1(C)CN(C(=O)c2ccc(-c3cccc4nc(NC(=O)C5CC5)nn34)cc2)C1	0
Cc1ccc(C2=Nc3ccc(Cl)cc3OC2)cc1	0
O=C(/C=C/c1cccc(S(=O)(=O)Nc2ccccc2)c1)NO	1
CNC(=O)c1ccc(N2C(=S)N(c3cnc(C#N)c(C(F)(F)F)c3)C(=O)C23CCC3)cc1F	0
CO[C@H]1/C=C/O[C@@]2(C)Oc3c(C)c(O)c4c(O)c(c(/C=N\N5CCN(C6CCCC6)CC5)c(O)c4c3C2=O)NC(=O)/C(C)=C\C=C\[C@H](C)[C@H](O)[C@@H](C)[C@@H](O)[C@@H](C)[C@H](OC(C)=O)[C@@H]1C	1
COc1cccc2c1c(O)c(C(=O)N(C)c1ccc(C(F)(F)F)cc1)c(=O)n2C	0

###

experimental-protocol: growth inhibition, single agents and combos, LFS_MB_1R, cell-based, cisplatin or BGB combos, synergistic combos for chromothripsis tumors (AID 1671452);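 note: cells exposed for 96 hours before readout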
condition-label: LFS_MB_1R medulloblastoma cells, measured here: combination with cisplatin, at 0.5 µM, stronger effect = higher value
Rule: y for inhibition not less than -20%, n for anything less.

>>> df
                               entry_smiles  label_class
0        CN(C)c1ccc(C(=O)NCCCCCCC(=O)NO)cc1            y
1  C=C1[C@H](CO)[C@@H](O)C[C@@H]1n1cnc2c(=O)[nH]c(N)nc21            y
2  COc1ccc(C(=O)C2CCN(CC(=O)N(Cc3nc4c(c(=O)[nH]3)COCC4)CC3CC3)CC2)cc1            n
3  CN(C)Cc1c(C(=O)NCCOc2ccc(C(=O)NO)cc2)oc2ccccc12            y
4  Cc1cn([C@@H]2O[C@H](CO)[C@@H](O)[C@@H]2F)c(=O)[nH]c1=O            n

###

experimental-protocol: viability loss with induced miR-34 in A549 – imaging, A549 dox-inducible miR-34, nuclei and caspase counts, primary screen (AID 1347080)
condition-label: A549 miR-34 inducible, Hoechst nuclei count, 48 h; measured here: total cells without miR-34 induction
Respond with label 1 for cell count values of 6000 and above, label 0 for values below.

In [3]: df
Out[3]:
                                    molecule  label_class
 0  Cc1ccc(NC(=O)C2(c3ccc4c(c3)OC(F)(F)O4)CC2)nc1-c1cccc(C(=O)O)c1      label 1
 1  O=C(O)CCC/C=C\C[C@@H]1CO[C@H](C(F)(F)F)O[C@@H]1c1ccccc1O      label 1
 2  C#Cc1cccc(Nc2ncnc3cc(OC)c(OCCCCCCC(=O)NO)cc23)c1      label 0
 3      CC(=O)NCCc1c(Cc2ccccc2)[nH]c2ccccc12      label 1
 4  CCCCC[C@H](O)/C=C/[C@H]1[C@H](O)CC(=O)[C@@H]1CCCCCCC(=O)NCCO      label 1
 5  CC(C)CCOc1ccc(NC(=S)Nc2ccc(OCCC(C)C)cc2)cc1      label 0
 6       CCC(O)/C=C/C=O (stereo unspecified)      label 1
 7  CCCCCCCCCCCCCCCCOC[C@H](COP(=O)([O-])OCCCCCC[N+](C)(C)C)OC(C)=O      label 0
 8      O/N=C/c1ccc(-c2ccc(O)c(F)c2)c(Cl)c1O      label 1
 9  CC(C)c1ccccc1S(=O)(=O)c1cc(N)c2ncccc2c1[N+](=O)[O-]      label 1
10  CCN(CC)CCn1c(=O)c(Cc2ccc(OC)cc2)nc2ccccc21      label 1

###

experimental-protocol: viability loss with induced miR-34 in A549 – imaging, A549 dox-inducible miR-34, nuclei and caspase counts, primary screen (AID 1347080)
condition-label: A549 miR-34 inducible, Hoechst nuclei count, 48 h; measured here: relative caspase fold change +Dox/-Dox
Note to self: class = bucket of fold change, per 1 = under 0.8, 2 = from 0.8 up to 1, 3 = 1 and over

In [3]: df
Out[3]:
                                   compound  label_class
0  N#C/C(=C\c1ccc(O)c(O)c1)C(=O)NCCCc1ccccc1            3
1  CCCCC[C@H](O)/C=C/[C@H]1[C@H](O)CC(=O)[C@@H]1C/C=C\CCCC(=O)Oc1ccc(NC(C)=O)cc1            2
2  CNC(=O)c1ccc(N2C(=S)N(c3cnc(C#N)c(C(F)(F)F)c3)C(=O)C23CCC3)cc1F            1
3  CCCCC[C@H](O)/C=C/[C@@H]1[C@@H](C/C=C\CCCC(=O)OCC(O)CO)[C@@H](O)C[C@H]1O (some centres undefined)            3
4  COc1cc(N2CCC(N(C)C)CC2)ccc1Nc1ncc(Cl)c(Nc2ccccc2P(C)(C)=O)n1            2
5       CCCCCCCCCCCCCCCCOC[C@@H](CO)SC(C)=O            1
6  CCCCC[C@H](O)/C=C/[C@@H]1[C@@H](C/C=C\CCCC(=O)NCC)[C@@H](O)C[C@H]1O            3

###

experimental-protocol: viability loss with induced miR-34 in A549 – imaging, A549 dox-inducible miR-34, nuclei and caspase counts, primary screen (AID 1347080)
condition-label: A549 miR-34 inducible, Hoechst nuclei count, 48 h; measured here: total cells with miR-34 induction; stronger effect = lower value
Measured cell count of individual entries
quantity-measured: cell count

In [3]: df
Out[3]:
                                    molecule  result_number
 0  N#C/C(=C\c1ccc(O)c(O)c1)C(=O)NCCCc1ccccc1           7250
 1  CCS(=O)(=O)N(C)[C@H]1c2cc(C#N)ccc2OC(C)(C)[C@@H]1O (racemic)           9180
 2                    C=CC(=O)c1ccc2ccccc2c1           8570
 3  COC(=O)C1=CC[C@@]23CC[C@@H]([C@@](C)(/C=C/C=C(\C)C(=O)O)OC2=O)[C@@]3(OC(C)=O)CC1           2140
 4  CCC(=O)Nc1cccc(Oc2nc(Nc3ccc(N4CCN(C)CC4)cc3OC)ncc2Cl)c1           3260
 5  O=P(O)(O)O[C@H]1[C@H](O)[C@@H](O)[C@H](OP(=O)(O)O)[C@@H](OP(=O)(O)O)[C@H]1O           5340
 6  CS(=O)(=O)Nc1c(O)ccc2c1CCCC2C1=NCCN1 (stereo unspecified)           9080
 7  NC(C(=O)O)c1cc(O)ccc1Cl (stereo unspecified)           9170
 8  CC1(C)Oc2ccc(C#N)cc2[C@H](N2CCCC2=O)[C@H]1O (racemic)           8970
 9  CCCCC[C@H](O)/C=C/[C@@H]1[C@@H](C/C=C\CCCC(=O)NCCO)[C@@H](O)C[C@H]1O           5200
10  O=C(O)CCC/C=C\C[C@@H]1C(=O)C[C@@H](O)[C@@H]1/C=C/[C@@H](O)CCc1ccccc1           5200
11  O=C(O)CCC/C=C\C[C@H]1C(=O)C=C[C@@H]1CC[C@@H](O)CCc1ccccc1           6220
12  CNC(=O)c1nn(C)c2c1C(C)(C)Cc1cnc(Nc3ccc(N4CCN(C)CC4)cc3)nc1-2           1220
13  Nc1cccc(-c2cc3c(Oc4cccc(O)c4)ncnc3[nH]2)c1           1790
14  N[C@@H](Cc1ccc(O)c([N+](=O)[O-])c1)C(=O)O           5730
15  COC(=O)c1c(-c2cc(OC)c(OC)c(OC)c2)c2ccnc(OCc3ncccn3)c2c(=O)n1Cc1ccnc(C)c1           8000
16  Cc1cc(CN2CCN(c3c(Br)cnc4nc(-c5ccc(N6CCN(C)CC6)cc5)[nH]c34)CC2)no1           3400
17                CCCCCCCCCCCCCCCC(=O)NC(C)C           6190
18  CCCCCOc1ccccc1C(O)CC#CCCCC(=O)OC (stereo unspecified)           5930
19     C[C@@H](C(=O)O)c1ccc(-c2ccccc2)c(F)c1           6150
20         NS(=O)(=O)c1nn2cc(-c3ccccc3)nc2s1           4960
